- procedure.summary: Volatility of perfuming compounds in air
- Format: physicochemical
- condition.set: Table 9, perfuming compounds having a gourmand note
Please enter T where Volatility (μg/l air) is greater than or equal to 70 μg/l air, and F where it is lower.

>  <compound>
C=CCSSCC=C [DIALLYL DISULFIDE]

>  <category>
T

$$$$
>  <compound>
COc1cccc(OC)c1O

>  <category>
F

$$$$
>  <compound>
CC(=O)OCCc1ccccc1 [2-PHENYLETHYL ACETATE]

>  <category>
T

$$$$
>  <compound>
CCCCC1CCCC(=O)O1 (centres unmarked) [5-NONANOLIDE]

>  <category>
F

$$$$
>  <compound>
O=C1CCC2(CCCCC2)O1 [1-oxaspiro[4.5]decan-2-one]

>  <category>
F

$$$$
>  <compound>
CCCCC1CCC(=O)O1 (racemic) [(+−)-4-OCTANOLIDE]

>  <category>
T

$$$$
>  <compound>
CCC(=O)/C=C/C1=C(C)CCCC1(C)C

>  <category>
F

$$$$
>  <compound>
CC(=O)OCCC1CCCCC1 [2-CYCLOHEXYLETHYL ACETATE]

>  <category>
T

$$$$
>  <compound>
CCCCC[C@@H]1OC(=O)C[C@H]1C (racemic) [(+−)-TRANS-3-METHYL-4-NONANOLIDE]

>  <category>
F

$$$$
>  <compound>
CC(C)CCOCCc1ccccc1

>  <category>
T

$$$$
>  <compound>
CCCC=C1OC(=O)c2ccccc21 [3-BUTYLIDENE-1-BENZO[C]FURANONE]

>  <category>
F

$$$$
>  <compound>
C=C1CCCC(C)(C)C1C(=O)/C=C/C (racemic)

>  <category>
T

$$$$
>  <compound>
OCCc1ccccc1

>  <category>
T

$$$$
>  <compound>
C/C=C/c1ccc(O)c(OC)c1 [2-methoxy-4-[(1E)-1-propen-1-yl]phenol]

>  <category>
F

$$$$
>  <compound>
CC1=CC[C@H](C(C)CC2CCCC2=O)CC1 (some centres unmarked)

>  <category>
F

$$$$
>  <compound>
CCCCCCC1CCCC(=O)O1 (centres unmarked) [6-hexyltetrahydro-2H-pyran-2-one]

>  <category>
F

$$$$
>  <compound>
CC/C=C\CC1=C(C)CCC1=O

>  <category>
F

$$$$
>  <compound>
CC(C)C(=O)OCCc1ccccc1 [2-PHENYLETHYL ISOBUTYRATE]

>  <category>
F

$$$$
>  <compound>
CCCCCC1CCCC1=O (racemic) [(+−)-2-pentylcyclopentanone]

>  <category>
T

$$$$
>  <compound>
O=c1ccc2ccccc2o1

>  <category>
F

$$$$
>  <compound>
C/C=C/C(=O)[C@@H]1[C@@H](C)C=CCC1(C)C (racemic)

>  <category>
T

$$$$
>  <compound>
C[C@@H]1CC[C@H]2[C@H](C)C(=O)O[C@@H]2C1

>  <category>
T

$$$$

All figures here come from patent US11427783B2.
